Reference source for all entries: PubChem BioAssay (NCATS)

experiment: Quantitative High-Throughput drug screen in 47 multiple myeloma cell lines against the NCATS MIPE library collection: JIM1_ECACC cell viability assay (AID 1918964); settings: JIM1 myeloma viability, CellTiter-Glo ATP luminescence, 48 h; series mostly up to 45.8 µM
Records with an inconclusive call do not appear. Active and inactive are the calls of the source. Calls follow the shape of the dose curve; as a rule, active = well fitted cell-killing curve with a large enough effect; inconclusive = small, poorly fitted or top-dose-only effect, or effect the other way; inactive = no such curve, though single readings can be large or run the other way.
Your reply should match one of these outcome classes. T (active), F (inactive)

Worked cases, answers included:
* C[C@@H](O)[C@H]1C(=O)N2C(C(=O)OCOC(=O)C(C)(C)C)=C(SC3CN(C4=NCCS4)C3)[C@H](C)[C@H]12 | F
* CC(C)=CCCC(C)=CCCC(C)=CCCC(C)=CCCC(C)=CCCC(C)=CCCC(C)=CCCC(C)=CCCC(C)=CCO | F

Now look at this one.
query: Status in this test for `O=C(Nc1ncc(SCCN2CCCC2)s1)[C@]1(c2ccc(S(=O)(=O)C3CC3)cc2)C[C@@H]1C1CCCCC1` ?
result: T

====

assay: qHTS of pediatric cancer cell lines to identify multiple opportunities for drug repurposing: Primary screen for SK-N-SH cells (AID 1347098); conditions: SK-N-SH viability, CellTiter-Glo luminescence, 48 h; series mostly up to 57 µM; also: nearly all actives have a fitted effect of over 65% in size
Inconclusive results are not listed. Calls of active or inactive are those of the source. Calls follow the shape of the dose curve; as a rule, active = well fitted cell-killing curve with a large enough effect; inconclusive = small, poorly fitted or top-dose-only effect; inactive = no such curve, though single readings can be large or run the other way.
Your reply should match one of these outcome classes. active, inactive

Worked cases, answers included:
- C[C@@H]1CCO[C@H]2Cn3cc(C(=O)NCc4ccc(F)cc4F)c(=O)c(O)c3C(=O)N12: inactive
- CSc1cccc(Nc2ncc3cc(-c4c(Cl)cccc4Cl)c(=O)n(C)c3n2)c1: inactive
- CNC1CCC(N(Cc2cccc(-c3ccncc3)c2)C(=O)c2sc3ccccc3c2Cl)CC1 (centres undefined): active
- OCCn1cc(-c2ccc3c(c2)CCC3=NO)c(-c2ccncc2)n1: active
- NC(=O)c1nnn(Cc2cc(Cl)c(C(=O)c3ccc(Cl)cc3)c(Cl)c2)c1N: active

Now look at this one.
query: Status in this test for `CC[C@H](C=C[C@@H](C)[C@H]1CC[C@H]2[C@@H]3CC=C4C[C@@H](O)CC[C@]4(C)[C@@H]3CC[C@]12C)C(C)C` ?
result: inactive

====

Test: Quantitative High-Throughput drug screen in 47 multiple myeloma cell lines against the NCATS MIPE library collection: XG6_PLB cell viability assay (AID 1919865); also: nearly all actives have a fitted effect of over 40% in size; also: potency is read from the fitted curve at half-maximal effect
Conditions: XG6 myeloma viability, CellTiter-Glo ATP luminescence, 48 h; series mostly up to 45.8 µM
From the text: PI: Beverly A. Mock Ph.D. Laboratory of Cancer Biology and Genetics, Center for Cancer Research, National Cancer Institute, National Institute of Health, Bethesda, Maryland […] 5; Detector; 425V; Luminescence; Viewlux PerkinElmer. […] 1. […] Briefly, the corresponding myeloma cell lines were screened in 1,536-well plates with 500 cells, 5-uL per well for inhibition of cell viability (assessed by measuring ATP levels with CellTiterGlo). […]
Records with an inconclusive call do not appear. Active and inactive are the calls of the source. Calls follow the shape of the dose curve; as a rule, active = well fitted cell-killing curve with a large enough effect; inconclusive = small, poorly fitted or top-dose-only effect, or effect the other way; inactive = no such curve, though single readings can be large or run the other way.
Readout: Potency

• C[C@@H]1C[C@H]2[C@@H]3CCC4=CC(=O)C=C[C@]4(C)[C@@]3(F)[C@@H](O)C[C@]2(C)[C@@]1(O)C(=O)CO = inactive
• Cc1cccc(-c2[nH]c(C(C)(C)C)nc2-c2ccc3c(c2)OCO3)n1 = 2.96 µM (active)
• COc1ccc(-c2cc3nccn3c(Nc3ncccc3C(N)=O)n2)cc1OC = 1.18 µM (active)
• CC[C@@H]([C@H](C)O)n1ncn(-c2ccc(N3CCN(c4ccc(OCC5CO[C@@](Cn6cncn6)(c6ccc(F)cc6F)C5)cc4)CC3)cc2)c1=O (stereo not given in full) = 20.9 µM (active)

query: Which Potency reading was recorded for the compound `Cc1cn([C@@H]2C[C@@H](O)[C@H](CO)O2)c(=O)[nH]c1=O` ?
result: inactive

query: Which Potency reading was recorded for the compound `CC(O)=C(C#N)C(=O)Nc1ccc(C(F)(F)F)cc1` ?
result: 18.7 µM (active)

query: Which Potency reading was recorded for the compound `C[C@H]1[C@H](O)O[C@@H]2O[C@@]3(C)CC[C@@H]4[C@H](C)CC[C@@H]1[C@@]24OO3` ?
result: 3.72 µM (active)

query: Which Potency reading was recorded for the compound `CC(C)(CO)[C@@H](O)C(=O)NCCC(=O)O` ?
result: 20.9 µM (active)

query: Which Potency reading was recorded for the compound `COc1ccc(-c2cc(=O)c3c(O)cc(O[C@@H]4O[C@H](CO[C@@H]5O[C@@H](C)[C@H](O)[C@@H](O)[C@@H]5O)[C@@H](O)[C@H](O)[C@@H]4O)cc3o2)cc1O` ?
result: 9.35 µM (active)

query: Which Potency reading was recorded for the compound `CC(C)Oc1cc(Nc2nc(N[C@@H](C)c3ccc(F)cn3)ncc2Cl)[nH]n1` ?
result: 7.43 µM (active)

query: Which Potency reading was recorded for the compound `CNc1nc(-c2ccc3c(N)n[nH]c3c2)cc(N2C[C@@H](C(=O)NC3CCCCC3)CC[C@@H]2C)n1` ?
result: 20.9 µM (active)

query: Which Potency reading was recorded for the compound CCOC(=O)[C@H](CCc1ccccc1)N[C@@H](C)C(=O)N1CCCC1C(=O)O (stereo not given in full) ?
result: 23.5 µM (active)

query: Which Potency reading was recorded for the compound CN1[C@H]2CC[C@H]1CC(OC(=O)c1c[nH]c3ccccc13)C2 (stereo not given in full) ?
result: 16.6 µM (active)

query: Which Potency reading was recorded for the compound `CC(C)C[C@@H](N)[C@H](O)C(=O)N[C@H](C(=O)N[C@H](C(=O)N[C@@H](CC(=O)O)C(=O)O)C(C)C)C(C)C` ?
result: 7.43 µM (active)

query: Which Potency reading was recorded for the compound `CC(C)C[C@@H](C(=O)N[C@H](C(=O)OC1CCCC1)c1ccccc1)[C@H](O)C(=O)NO` ?
result: 14.8 µM (active)

query: Which Potency reading was recorded for the compound `NC1(C(=O)N[C@@H](CCO)c2ccc(Cl)cc2)CCN(c2ncnc3[nH]ccc23)CC1` ?
result: 20.9 µM (active)

query: Which Potency reading was recorded for the compound `COc1ccc(CCC(=O)Nc2nc3ccc(Cl)cc3s2)cc1OC` ?
result: 23.5 µM (active)

query: Which Potency reading was recorded for the compound `COc1cc2nccc(Oc3ccc(NC(=O)Nc4cc(C)on4)c(Cl)c3)c2cc1OC` ?
result: 0.118 µM (active)

query: Which Potency reading was recorded for the compound `O=C(Nc1cccc2c(=O)cc(-c3nn[nH]n3)oc12)c1ccc(OCCCCc2ccccc2)cc1` ?
result: 26.4 µM (active)

query: Which Potency reading was recorded for the compound `CN(C)CCOc1ccc(-c2nc(-c3ccc4c(c3)CCC4=NO)c(-c3ccncc3)[nH]2)cc1` ?
result: 16.6 µM (active)

query: Which Potency reading was recorded for the compound `CNC(=O)c1cc(Oc2ccc(NC(=O)Nc3ccc(Cl)c(C(F)(F)F)c3)c(F)c2)ccn1` ?
result: 0.935 µM (active)

query: Which Potency reading was recorded for the compound `CCC(=C(CC)c1ccc(O)cc1)c1ccc(O)cc1` ?
result: 20.9 µM (active)

query: Which Potency reading was recorded for the compound `Clc1ccc(C2(c3ccc(-c4cn[nH]c4)cc3)CCNCC2)cc1` ?
result: 3.72 µM (active)

query: Which Potency reading was recorded for the compound `CNC(=O)c1c(-c2ccc(F)cc2)oc2cc(N(CCO)S(C)(=O)=O)c(C3CC3)cc12` ?
result: 18.7 µM (active)

query: Which Potency reading was recorded for the compound `Cn1c(=O)c(-c2c(Cl)cccc2Cl)cc2cnc(Nc3cccc(C(=O)O)c3)nc21` ?
result: 0.187 µM (active)

query: Which Potency reading was recorded for the compound `CN1CCN(c2cccc(Nc3nc4c(-c5ccc(S(C)(=O)=O)cc5)cccn4n3)c2)CC1` ?
result: 0.833 µM (active)

query: Which Potency reading was recorded for the compound `CC(=O)N1CCN(c2ccc(OCc3nn(C)c(C)c3-c3cccc4c(CCCOc5cc(C)c(Cl)c(C)c5)c(C(=O)O)n(Cc5cccnc5)c34)cc2)CC1` ?
result: 5.9 µM (active)

query: Which Potency reading was recorded for the compound `O=C(Nc1ncc(SCCN2CCCC2)s1)[C@]1(c2ccc(S(=O)(=O)C3CC3)cc2)C[C@@H]1C1CCCCC1` ?
result: 10.5 µM (active)

query: Which Potency reading was recorded for the compound `CCOC(=O)N1CCN([N+]([O-])=NOc2cc(ON=[N+]([O-])N3CCN(C(=O)OCC)CC3)c([N+](=O)[O-])cc2[N+](=O)[O-])CC1` ?
result: 4.69 µM (active)

query: Which Potency reading was recorded for the compound `O=c1[nH]nc(OCCCc2ccc(Cl)cc2)c(NCc2cccnc2)c1Br` ?
result: 2.96 µM (active)

query: Which Potency reading was recorded for the compound O=C1C(CCC(O)c2ccc(F)cc2)C(c2ccc(O)cc2)N1c1ccc(F)cc1 (stereo not given) ?
result: 2.09 µM (active)
